Listing: Kd of selected binders
Target: T1, wild-type RII(1–45) D/D domain fragment (UniProt P13861 1-45, biotinylated when used as AlphaScreen tracer (site not stated))
T1 construct: PKA regulatory subunit RIIα, residues 1-45, docking and dimerization (D/D) domain; His6 tag is PreScission-cleavable; also called WT RII; RII D/D domain; not shown: V5, C-terminal, kept
Test: AlphaScreen or HTRF; competition binding: biotinylated R subunit D/D domain 0.3 nM (tracer), GST-AKAP RII-binding region 3 nM (target), increasing untagged R subunit D/D domain; IC50 approximates Kd; 20 mM HEPES pH 7.2, 100 mM NaCl, 0.1% BSA; 1 h at 4 °C; one-site competition fit
Details: both partners purified
Reply with the number and its unit after it.

>>> result("GST-AKAP18 anchoring helix fragment (domain or fragment) NGGEPDDAELVRLSKRLVENAVLKAVQQYLEETQNKNKPGEGSSVKTEAADQNGNDNENNRK")
"16.3 nM"

In: Please report the recorded Kd for GST-AKAP2 anchoring helix fragment (domain or fragment) GDSPLVDDPLEYQAGLLVQNAIQQAIAEQVDKAVSKTSRDGAEQQGPEATVEEAEAAAFG .
Out: 12.5 nM
